Tested on: HCV replicon
RUN DESCRIPTION: Replicon based assay of HCV replication inhibition (NPT ELISA)
Format: cell-based, Hepatitis C virus
CONDITION: Hepatitis C virus, Huh-7, 72 h, Table III; Huh-7 HCV replicon-containing cells, three days; read-out: Activity
Method: Compounds claimed herein are tested for the ability to inhibit viral replication of the Hepatitis C replicon in cultured cells in which the HCV replicon construct has been incorporated. […] In this assay HCV replicon containing cells are treated with different concentrations of the test compound to ascertain the ability of the test compound to suppress replication of the HCV replicon. […] The NPT level of each sample is measured using a captured ELISA. […]

COMPOUND STRUCTURE: Oc1csc(Nc2ccc(OCCCC3CCCC3)c(C(F)(F)F)c2)n1
EC50: 1000 to 10000 nM
--
COMPOUND STRUCTURE: CCCCCCCc1nc2cc(Nc3nc(-c4cnc(OC)nc4)cs3)ccc2o1
EC50: < 1000 nM
--
COMPOUND STRUCTURE: CN(C)CCCOc1ccc(Nc2nc(-c3cccnc3)cs2)cc1C(F)(F)F
EC50: 1000 to 10000 nM
--
COMPOUND STRUCTURE: CCCCCCCCOc1ccc(Nc2nc(-c3cnc(O)cc3C)cs2)cc1C(F)(F)F
EC50: < 1000 nM
--
COMPOUND STRUCTURE: CCCCCCCc1ccc(Nc2nc(-c3ccc(OCC(=O)O)cc3)c(C)s2)cc1
EC50: < 1000 nM
--
COMPOUND STRUCTURE: CCCCCOc1ccc(Nc2nc(Cc3ccc(Cl)cc3)cs2)cc1F
EC50: > 10000 nM
--
COMPOUND STRUCTURE: CCCCCOc1ccc(Nc2nc(Cc3ccc(Cl)cc3)cs2)cc1C(F)(F)F
EC50: 1000 to 10000 nM
--
COMPOUND STRUCTURE: CCCCCCCCOc1ccc(Nc2nc(-c3cccc(C(F)(F)F)c3)cs2)cc1C(F)(F)F
EC50: < 1000 nM
--
COMPOUND STRUCTURE: CCCCCCCCc1ccc(Nc2nc(-c3ccc(OCC(=O)O)cc3)c(C)s2)cc1
EC50: < 1000 nM
--
COMPOUND STRUCTURE: CCCCCCCCN(C)c1ccc(Nc2nc(Cc3ccc(OC)cc3)cs2)cc1
EC50: > 10000 nM
--
COMPOUND STRUCTURE: CCCCCOc1ccc(Nc2nc(/C=C/c3ccc(Cl)cc3)cs2)cc1C(F)(F)F
EC50: < 1000 nM
--
COMPOUND STRUCTURE: CCCCCCCCN(C)c1ccc(Nc2nc(-c3ccc(OCC(=O)O)cc3)c(C)s2)cc1C(F)(F)F
EC50: < 1000 nM
--
COMPOUND STRUCTURE: CCCCCCCOc1ccc(C(=O)Nc2nc(-c3cccnc3)cs2)cc1
EC50: > 10000 nM
--
COMPOUND STRUCTURE: CCCCCCCc1ccc(Nc2nc(-c3ccccn3)cs2)cc1
EC50: < 1000 nM
--
COMPOUND STRUCTURE: CCCCCCCCOc1ccc(Nc2nc(-c3ccc4c(c3)SCC(=O)N4)cs2)cc1C(F)(F)F
EC50: < 1000 nM
--
COMPOUND STRUCTURE: CCCCCCCCOc1ccc(Nc2nc(-c3ccc4nccn4c3)cs2)cc1C(F)(F)F
EC50: < 1000 nM
--
COMPOUND STRUCTURE: CCCCCCCCOc1ccc(Nc2nc(-c3ccc[n+]([O-])c3)cs2)cc1
EC50: < 1000 nM
--
COMPOUND STRUCTURE: CCCCCOc1ccc(Nc2nc(-c3ccc[n+]([O-])c3)cs2)cc1C(F)(F)F
EC50: < 1000 nM
--
COMPOUND STRUCTURE: CCCCCCCc1nc2cc(Nc3nc(-c4cccnc4)cs3)ccc2o1
EC50: < 1000 nM
--
COMPOUND STRUCTURE: CCCCCCCCOc1ccc(Nc2nc(-c3ccc(F)cc3)cs2)cc1C(F)(F)F
EC50: < 1000 nM
--
COMPOUND STRUCTURE: CCCCCCCCN(C)c1ccc(Nc2nccs2)cc1C(F)(F)F
EC50: < 1000 nM
--
COMPOUND STRUCTURE: CCCCCCCCOc1ccc(Nc2nc(-c3ccc(CCO)cc3)cs2)cc1C(F)(F)F
EC50: < 1000 nM
--
COMPOUND STRUCTURE: CCCCCCCCN(C)c1ccc(Nc2nc(-c3ccc(F)cc3)cs2)cc1C(F)(F)F
EC50: < 1000 nM
--
COMPOUND STRUCTURE: CCCCCCCCOc1ccc(Nc2nc(-c3cccc(S(N)(=O)=O)c3)cs2)cc1C(F)(F)F
EC50: < 1000 nM
--
COMPOUND STRUCTURE: CCCCCCCCOc1ccc(Nc2nc(-c3ccccn3)cs2)cc1C(F)(F)F
EC50: < 1000 nM
--
COMPOUND STRUCTURE: CCCCCCCCc1ccc(Nc2nc(-c3ccc(Cl)cc3)cs2)cc1
EC50: < 1000 nM
--
COMPOUND STRUCTURE: CCCCCOc1ccc(Nc2nc(/C=C/c3ccc(OC)cc3)cs2)cc1C(F)(F)F
EC50: < 1000 nM
--
COMPOUND STRUCTURE: Fc1ccc(-c2csc(Nc3ccc(OCC4CCCCC4)c(F)c3)n2)cn1
EC50: < 1000 nM
--
COMPOUND STRUCTURE: O=C1OCc2cc(-c3csc(Nc4ccc(OCC5CCCCC5)c(F)c4)n3)ccc21
EC50: 1000 to 10000 nM
--
COMPOUND STRUCTURE: CCCCCCCc1ccc(Nc2nc(-c3cc4ccccc4o3)cs2)cc1
EC50: > 10000 nM
--
COMPOUND STRUCTURE: CCCCCCCCOc1ccc(Nc2nc(-c3cccc(OC)n3)cs2)cc1C(F)(F)F
EC50: < 1000 nM
--
COMPOUND STRUCTURE: CCCCCCCCOc1ccc(Nc2nc(-c3cncn3C)cs2)cc1C(F)(F)F
EC50: < 1000 nM
--
COMPOUND STRUCTURE: N#Cc1ccc(-c2csc(Nc3ccc(OC4CCCC4)c(C(F)(F)F)c3)n2)cn1
EC50: < 1000 nM
--
COMPOUND STRUCTURE: CCCCCCCCOc1ccc(Nc2nc(-c3cnc(Cl)nc3)cs2)cc1C(F)(F)F
EC50: < 1000 nM
--
COMPOUND STRUCTURE: CCCCCOc1ccc(Nc2nc(-c3cnc4ccccc4c3)cs2)cc1C(F)(F)F
EC50: < 1000 nM
